Tested on: A. baumannii CDC-0036
Experiment: microbe, parasite or virus in culture
Type: cell-based
Conditions: Acinetobacter baumannii, CDC0036, read-out: MIC, A. baumannii CDC-0036
MIC values, listed per item

Sample records with MIC:
Molecule | Quantity | Reported Value
O=C(O)c1c(F)ccc2c1OB(O)[C@@H](NC(=O)[C@H](NC(=O)N1CCN(C3CCN(C(=O)c4ccc(O)cc4)CC3)C1=O)c1cc(F)c(O)c(O)c1Cl)C2 (single isomer, unassigned) | MIC | < 1 µg/mL
O=C(O)c1c(F)ccc2c1OB(O)[C@@H](NC(=O)[C@H](NC(=O)N1CCN(C3CCN(C(=O)c4ccc(F)c(O)c4)CC3)C1=O)c1cc(F)c(O)c(O)c1Cl)C2 (single isomer, unassigned) | MIC | < 1 µg/mL
CN(CCCN1CCN(C(=O)NC(C(=O)N[C@H]2Cc3ccc(F)c(C(=O)O)c3OB2O)c2cc(F)c(O)c(O)c2Cl)C(=O)C1=O)C(=O)c1cccc(O)c1 (stereo partly shown) | MIC | 2 to 4 µg/mL

Now look at this entry.
**Query** Dear colleague, I am looking for the recorded MIC of the following molecule: O=C(O)c1c(F)ccc2c1OB(O)[C@@H](NC(=O)[C@H](NC(=O)N1CCN(C3CCN(C(=O)c4cc(O)cc(F)c4)CC3)C1=O)c1cc(F)c(O)c(O)c1Cl)C2 (single isomer, unassigned)
**Result** < 1 µg/mL

====

Tested on: P. aeruginosa CDC-0095
Test: microbe, parasite or virus in culture
Type: cell-based
Conditions: Pseudomonas aeruginosa, CDC0095, read-out: Minimum inhibitory concentration, P. aeruginosa CDC-0095
MIC overview

Field: example entries. Status: answers known.
Compound | MIC
O=C(CN1CCN(C(=O)N[C@@H](C(=O)N[C@H]2Cc3ccc(F)c(C(=O)O)c3OB2O)c2cc(F)c(O)c(O)c2Cl)C(=O)C1=O)NCc1ccncc1 [Example 239] | 2 to 4 mg/L
O=C(NCCCN1CCN(C(=O)NC(C(=O)N[C@H]2Cc3ccc(F)c(C(=O)O)c3OB2O)c2cc(F)c(O)c(O)c2Cl)C(=O)C1=O)c1cc(O)ccc1Cl (stereo partly shown) [Example 408] | < 1 mg/L
O=C(O)c1c(F)ccc2c1OB(O)[C@@H](NC(=O)C(NC(=O)N1CCN(C3CCN(C(=O)Nc4cc(O)cc(F)c4)CC3)C(=O)C1=O)c1cc(F)c(O)c(O)c1Cl)C2 (stereo partly shown) [Example 481] | < 1 mg/L

**Query** State the recorded MIC for this entry: O=C(O)c1c(F)ccc2c1OB(O)[C@@H](NC(=O)[C@H](NC(=O)N1CCN(C3CCN(C(=O)c4cc(O)c(F)c(O)c4)CC3)C1=O)c1cc(F)c(O)c(O)c1Cl)C2 (single isomer, unassigned) [Example 443]
**Result** < 1 mg/L

====

Reported MIC values for the following compounds.
System: P. aeruginosa ATCC 35151
Test: microbe, parasite or virus in culture
Format: cell-based
Conditions: Pseudomonas aeruginosa, ATCC35151, read-out: Minimum inhibitory concentration, P. aeruginosa ATCC 35151

The examples below pair each entry with its known result.
Compound | Reported Value
O=C(O)c1c(F)ccc2c1OB(O)[C@@H](NC(=O)[C@H](NC(=O)N1CCN(C3CCN(C(=O)Nc4c(F)ccc(O)c4Cl)CC3)C1=O)c1cc(F)c(O)c(O)c1Cl)C2 (single isomer, unassigned) [Example 455] | < 1 µg/mL
O=C(O)c1c(F)ccc2c1OB(O)[C@@H](NC(=O)C(NC(=O)N1CCN(S(=O)(=O)CCCNC(=O)[C@@H]3CCCN3)C1=O)c1cc(F)c(O)c(O)c1Cl)C2 (stereo partly drawn) [Example 275] | < 1 µg/mL

Next up:
**Query** Enter reported MIC observed with P. aeruginosa ATCC 35151 for O=C(O)c1c(F)ccc2c1OB(O)[C@@H](NC(=O)[C@H](NC(=O)N1CCN(C3CCN(C(=O)c4cccnc4)CC3)C1=O)c1cc(F)c(O)c(O)c1Cl)C2 [Example 460]
**Result** < 1 µg/mL

====

Reported MIC by item:
Tested on: P. aeruginosa CDC-0110
Assay: microbe, parasite or virus in culture
Format: cell-based
Conditions: Pseudomonas aeruginosa, CDC0110, read-out: Minimum inhibitory concentration, P. aeruginosa CDC-0110

**Query** Fill in the blank: the reported MIC of CS(=O)(=O)N1CCN(C(=O)N[C@@H](C(=O)N[C@H]2Cc3ccc(F)c(C(=O)O)c3OB2O)c2ccc(P(=O)(O)O)c(F)c2)C1=O (single isomer, unassigned) is ____.
**Result** > 128 µg/mL

**Query** // query MIC value for entry O=C(O)c1c(F)ccc2c1OB(O)[C@@H](NC(=O)[C@H](NC(=O)N1CCN(C3CCN(C(=O)c4c(F)ccc(O)c4Cl)CC3)C1=O)c1cc(F)c(O)c(O)c1Cl)C2 (single isomer, unassigned)
**Result** < 1 µg/mL

**Query** Value lookup for MIC; key = O=C(O)c1c(F)ccc2c1OB(O)[C@@H](NC(=O)C(NC(=O)N1CCN(C3CCN(C(=O)c4cccc(O)c4)CC3)C(=O)C1=O)c1cc(F)c(O)c(O)c1Cl)C2 (stereo partly drawn)
**Result** < 1 µg/mL

====

Target: PBP3 from Acinetobacter baumannii (ATCC 19606) (Acinetobacter baumannii, UniProt A0ABX6CK25)
Sequence (A0ABX6CK25 64-610): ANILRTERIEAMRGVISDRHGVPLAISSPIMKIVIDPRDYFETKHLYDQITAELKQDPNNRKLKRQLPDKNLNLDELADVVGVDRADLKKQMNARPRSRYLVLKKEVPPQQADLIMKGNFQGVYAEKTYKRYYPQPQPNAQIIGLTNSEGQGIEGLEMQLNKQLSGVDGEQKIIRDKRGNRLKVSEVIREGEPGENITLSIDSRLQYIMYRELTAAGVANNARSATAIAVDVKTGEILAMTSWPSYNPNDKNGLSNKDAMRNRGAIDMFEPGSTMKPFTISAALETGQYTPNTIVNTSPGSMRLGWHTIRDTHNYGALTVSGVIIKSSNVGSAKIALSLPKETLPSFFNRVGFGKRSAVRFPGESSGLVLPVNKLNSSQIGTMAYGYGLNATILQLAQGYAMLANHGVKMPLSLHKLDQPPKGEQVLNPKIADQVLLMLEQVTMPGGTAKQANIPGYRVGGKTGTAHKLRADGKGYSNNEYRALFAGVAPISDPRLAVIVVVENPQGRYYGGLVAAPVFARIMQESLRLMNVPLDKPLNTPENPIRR
pIC50: −log10 of the molar value.
Quantity: pIC50

Molecule | Reported Value
O=C(O)c1c(F)ccc2c1OB(O)[C@@H](NC(=O)C(NC(=O)N1CCN(CC3CCN(C(=O)Nc4cccc(O)c4)CC3)C(=O)C1=O)c1cc(F)c(O)c(O)c1Cl)C2 (some centres unmarked) [Example 477] | > 5.00
O=C(NCCCN1CCN(C(=O)NC(C(=O)N[C@H]2Cc3ccc(F)c(C(=O)O)c3OB2O)c2cc(F)c(O)c(O)c2Cl)C(=O)C1=O)c1cc(F)ncc1F (mixture of isomers) [Example 405] | > 5.00
O=C(O)c1c(F)ccc2c1OB(O)[C@@H](NC(=O)[C@H](NC(=O)N1CCN(C3CCN(C(=O)Nc4ccc(O)cc4)CC3)C1=O)c1cc(F)c(O)c(O)c1Cl)C2 (single isomer, unassigned) [Example 468] | > 5.00
O=C(NCCCN1CCN(C(=O)NC(C(=O)N[C@H]2Cc3ccc(F)c(C(=O)O)c3OB2O)c2cc(F)c(O)c(O)c2Cl)C(=O)C1=O)c1ccncc1F (some centres unmarked) [Example 400] | > 5.00

Turning to the following molecule.
**Query** Suppose we examine the molecule O=C(NCCS(=O)(=O)N1CCN(C(=O)N[C@H](C(=O)N[C@H]2Cc3ccc(F)c(C(=O)O)c3OB2O)c2ccc(P(=O)(O)O)cc2)C1=O)c1ccc(O)c(O)c1Cl [Example 167] ; what pIC50 value has been reported?
**Result** 4.30 to 5.00

====

Tested on: N. gonorrhoeae MS11
Test: Liquid broth MIC in Fastidious broth
Details: Neisseria gonorrhoeae, MS11, read-out: Minimum Inhibitory Concentration (MIC), N. gonorrhoeae MS11
Quantity: MIC

Compound | MIC
O=C(CN1CCN(C(=O)N[C@@H](C(=O)N[C@H]2Cc3ccc(F)c(C(=O)O)c3OB2O)c2cc(F)c(O)c(O)c2Cl)C(=O)C1=O)NCc1ccncc1 [Example 239] | 16 to 32 µg/mL

**Query** What MIC value was documented for this compound, O=C(O)c1cccc2c1OB(O)[C@@H](NC(=O)[C@@H](NC(=O)c1cnc3sccn3c1=O)c1ccc(P(=O)(O)O)cc1)C2 (single isomer, unassigned) [Example 194] ?
**Result** 4 to 8 µg/mL

**Query** May I ask what MIC has been recorded for O=C(NCCCN1CCN(C(=O)NC(C(=O)N[C@H]2Cc3ccc(F)c(C(=O)O)c3OB2O)c2cc(F)c(O)c(O)c2Cl)C(=O)C1=O)c1ccccc1 (stereo partly drawn) [Example 202] ?
**Result** 16 to 32 µg/mL

====

Catalogue of pEC50 values
Molecular target: A. baumannii PBP2 (Acinetobacter baumannii)
Sequence (D0C8Z9 whole entry): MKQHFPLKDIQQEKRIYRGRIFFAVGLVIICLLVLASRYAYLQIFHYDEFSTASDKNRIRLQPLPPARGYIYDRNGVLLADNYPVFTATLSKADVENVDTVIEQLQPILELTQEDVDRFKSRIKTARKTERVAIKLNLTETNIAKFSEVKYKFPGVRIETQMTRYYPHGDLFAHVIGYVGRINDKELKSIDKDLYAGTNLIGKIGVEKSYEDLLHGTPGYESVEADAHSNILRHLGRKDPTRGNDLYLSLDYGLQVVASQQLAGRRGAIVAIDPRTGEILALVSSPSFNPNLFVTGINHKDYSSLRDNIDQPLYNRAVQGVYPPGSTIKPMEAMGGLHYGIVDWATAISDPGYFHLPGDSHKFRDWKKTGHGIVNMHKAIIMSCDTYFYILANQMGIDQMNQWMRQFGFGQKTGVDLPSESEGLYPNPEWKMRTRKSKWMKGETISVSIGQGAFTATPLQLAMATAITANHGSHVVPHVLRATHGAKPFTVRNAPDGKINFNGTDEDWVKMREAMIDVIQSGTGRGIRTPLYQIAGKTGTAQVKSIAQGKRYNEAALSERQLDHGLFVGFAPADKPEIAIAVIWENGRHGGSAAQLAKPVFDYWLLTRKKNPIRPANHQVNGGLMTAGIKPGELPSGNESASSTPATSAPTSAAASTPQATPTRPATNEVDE
Experiment: Bocillin-FL competition binding via gel filtration, A. baumannii PBP2
pEC50: −log10 of the molar value.

Compound | Target Of Assay | Reported Value
O=C(O)c1c(F)ccc2c1OB(O)[C@@H](NC(=O)[C@H](NC(=O)N1CCN(C3CCN(C(=O)c4cc(O)cc(F)c4)CC3)C1=O)c1cc(F)c(O)c(O)c1Cl)C2 (single isomer, unassigned) [Example 436] | A. baumannii PBP2 (Acinetobacter baumannii) | > 5.00
O=C(O)c1c(F)ccc2c1OB(O)[C@@H](NC(=O)C(NC(=O)N1CCN(C3CCN(Cc4cccc(O)c4)CC3)C1=O)c1cc(F)c(O)c(O)c1Cl)C2 (some centres unmarked) [Example 605] | A. baumannii PBP2 (Acinetobacter baumannii) | 4.30 to 5.00
O=C(O)c1c(F)ccc2c1OB(O)[C@@H](NC(=O)[C@H](NC(=O)N1CCN(C3CCN(C(=O)Nc4c(F)ccc(O)c4F)CC3)C1=O)c1cc(F)c(O)c(O)c1Cl)C2 (single isomer, unassigned) [Example 454] | A. baumannii PBP2 (Acinetobacter baumannii) | > 5.00
O=C(O)c1c(F)ccc2c1OB(O)[C@@H](NC(=O)[C@H](NC(=O)N1CCN(C3CCN(Cc4ccnnc4)CC3)C1=O)c1cc(F)c(O)c(O)c1Cl)C2 [Example 601] | A. baumannii PBP2 (Acinetobacter baumannii) | 4.30 to 5.00

Below: the item to evaluate.
**Query** Item O=C(O)c1c(F)ccc2c1OB(O)[C@@H](NC(=O)[C@H](NC(=O)N1CCN(C3CCN(C(=O)Nc4ccc(O)cc4)CC3)C1=O)c1cc(F)c(O)c(O)c1Cl)C2 (single isomer, unassigned) [Example 468] has what recorded pEC50?
**Result** > 5.00
